# measurementNotes: Mean residence time in mouse
# Type: ADME, organism-based
# protocolConditions: in vivo
measuredAttribute: MRT
// return the numeric value with its unit appended

# get_value(readout='MRT', item= C[C@@H]1CN(c2ccc3c(Nc4ccc(Cl)c(-c5ncc(-c6ccccc6)[nH]5)c4)nccc3n2)CCO1 )
33.6 min

----------
# testedSystem: UniProtKB Q99835
# Sequence (Q99835 whole entry): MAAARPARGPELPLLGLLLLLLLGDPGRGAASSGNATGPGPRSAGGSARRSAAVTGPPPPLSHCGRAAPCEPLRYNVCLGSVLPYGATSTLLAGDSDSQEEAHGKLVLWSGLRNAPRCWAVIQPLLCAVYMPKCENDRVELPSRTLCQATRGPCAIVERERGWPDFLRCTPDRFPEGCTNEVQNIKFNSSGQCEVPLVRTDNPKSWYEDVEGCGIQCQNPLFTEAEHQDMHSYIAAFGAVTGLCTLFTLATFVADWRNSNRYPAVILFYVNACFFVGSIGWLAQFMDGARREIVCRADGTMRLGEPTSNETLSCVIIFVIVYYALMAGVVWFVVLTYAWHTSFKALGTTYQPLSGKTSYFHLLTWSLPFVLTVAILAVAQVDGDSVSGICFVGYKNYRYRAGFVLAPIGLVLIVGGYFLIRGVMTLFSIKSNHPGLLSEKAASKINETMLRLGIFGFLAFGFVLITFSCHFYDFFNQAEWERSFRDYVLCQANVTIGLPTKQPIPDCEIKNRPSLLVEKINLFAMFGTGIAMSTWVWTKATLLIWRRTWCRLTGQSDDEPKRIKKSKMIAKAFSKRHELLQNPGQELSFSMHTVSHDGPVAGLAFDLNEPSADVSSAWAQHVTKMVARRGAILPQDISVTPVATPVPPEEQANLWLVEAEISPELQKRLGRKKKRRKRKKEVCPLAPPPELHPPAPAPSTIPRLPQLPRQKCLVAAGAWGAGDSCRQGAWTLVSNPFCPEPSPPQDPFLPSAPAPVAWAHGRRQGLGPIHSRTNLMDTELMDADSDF
# measurementNotes: Antagonist activity at human Smo expressed in CHO cells assessed as inhibition of BODIPY-cyclopamine binding after 4 hrs by fluorescence assay
measuredAttribute: IC50 (nM)
Kindly provide the numeric value in nM only, without the unit symbol.

Short answer please: IC50, UniProtKB Q99835, entry C[C@@H]1CN(c2ccc3c(Nc4ccc(Cl)c(-c5ncc(-c6ccccc6)[nH]5)c4)nccc3n2)CCO1
4

----------
# Test system: Mus musculus
# measurementNotes: Dose normalised AUC in po dosed mouse
# Assay type: ADME, organism-based
# protocolConditions: in vivo
Returns: string. Value is T if measured AUC/dose is below 500 nM·h, and F if it is greater than or equal to it.

For C[C@@H]1CN(c2ccc3c(Nc4ccc(Cl)c(-c5ncc(-c6ccccc6)[nH]5)c4)nccc3c2)CCO1 , is the recorded AUC/dose below the cut-off of 500 nM·h?
F

Then C[C@@H]1CN(c2ccc3c(Nc4ccc(Cl)c(-c5ncc(-c6ccccc6)[nH]5)c4)nccc3n2)CCO1 ?
F

Then C[C@@H]1CN(c2ccc3c(Nc4ccc(Cl)c(-c5nc(-c6ccccc6)c[nH]5)c4)nccc3n2)C[C@H](C)O1 ?
T

Then C[C@@H]1CN(c2ccc3c(Nc4ccc(Cl)c(-c5nc(-c6ccccc6)c[nH]5)c4)ccnc3c2)C[C@H](C)O1 ?
T

Then Clc1ccc(Nc2nccc3cc(N4CCOCC4)ccc23)cc1-c1ncc(-c2ccccc2)[nH]1 ?
T

----------
Record form. Attribute: clearance. Fill in for each entry.
# System: Mus musculus
# measurementNotes: Clearance in po dosed mouse
# Type: ADME, organism-based
# protocolConditions: in vivo
// return the numeric value with its unit appended

# get_value(readout='clearance', item= C[C@@H]1CN(c2ccc3c(Nc4ccc(Cl)c(-c5ncc(-c6ccccc6)[nH]5)c4)nccc3n2)CCO1 )
32 mL/min/kg

Then C[C@@H]1CN(c2ccc3c(Nc4ccc(Cl)c(-c5nc(-c6ccccc6)c[nH]5)c4)nccc3n2)C[C@H](C)O1 ?
33.1 mL/min/kg

Then C[C@@H]1CN(c2ccc3c(Nc4ccc(Cl)c(-c5ncc(-c6ccccc6)[nH]5)c4)nccc3c2)CCO1 ?
30.9 mL/min/kg

Then C[C@@H]1CN(c2ccc3c(Nc4ccc(Cl)c(-c5ncc(-c6ccccc6)[nH]5)c4)nccc3c2)C[C@H](C)O1 ?
24.7 mL/min/kg

----------
# measurementNotes: Mean residence time in rat at 3 to 30 mg/kg
# Assay type: ADME, organism-based
# Set-up: dose 3-30 mg/kg
# protocolConditions: in vivo
measuredAttribute: MRT (h)
Kindly provide the numeric value in h only, without the unit symbol.

# get_value(readout='MRT', item= C[C@@H]1CN(c2ccc3c(Nc4ccc(Cl)c(-c5ncc(-c6ccccc6)[nH]5)c4)nccc3n2)CCO1 )
3.33

----------
# measurementNotes: Aqueous solubility of the compound at pH 1
# Assay type: physicochemical
measuredAttribute: solubility (µg/mL)
Kindly provide the numeric value in µg/mL only, without the unit symbol.

# get_value(readout='solubility', item= C[C@@H]1CN(c2ccc3c(Nc4ccc(Cl)c(-c5ncc(-c6ccccc6)[nH]5)c4)nccc3n2)CCO1 )
93

----------
# testedSystem: Protein smoothened (Mus musculus, UniProt P56726)
# Sequence (P56726 whole entry): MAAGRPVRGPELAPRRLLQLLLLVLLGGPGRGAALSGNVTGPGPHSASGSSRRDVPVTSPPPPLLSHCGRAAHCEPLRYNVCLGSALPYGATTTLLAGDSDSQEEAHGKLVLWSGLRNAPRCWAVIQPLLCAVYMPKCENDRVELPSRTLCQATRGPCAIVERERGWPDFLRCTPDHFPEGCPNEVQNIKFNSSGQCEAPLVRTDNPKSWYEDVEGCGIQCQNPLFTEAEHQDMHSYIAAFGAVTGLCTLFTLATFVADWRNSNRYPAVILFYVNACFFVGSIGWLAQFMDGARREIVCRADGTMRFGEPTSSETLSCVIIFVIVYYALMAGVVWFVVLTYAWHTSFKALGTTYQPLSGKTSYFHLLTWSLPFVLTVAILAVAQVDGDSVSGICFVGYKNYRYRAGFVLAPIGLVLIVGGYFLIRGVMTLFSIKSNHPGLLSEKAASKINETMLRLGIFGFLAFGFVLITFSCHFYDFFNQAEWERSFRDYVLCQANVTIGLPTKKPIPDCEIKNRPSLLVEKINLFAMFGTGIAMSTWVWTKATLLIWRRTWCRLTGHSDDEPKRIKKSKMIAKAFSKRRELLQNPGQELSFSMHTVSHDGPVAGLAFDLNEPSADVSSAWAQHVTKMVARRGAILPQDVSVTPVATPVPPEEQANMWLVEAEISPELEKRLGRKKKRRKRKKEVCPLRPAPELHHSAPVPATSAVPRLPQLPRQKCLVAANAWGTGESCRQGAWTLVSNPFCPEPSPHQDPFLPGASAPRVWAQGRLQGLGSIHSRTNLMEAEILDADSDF
# measurementNotes: Antagonist activity at Smo in mouse TM3 cells expressing Hh12 assessed as inhibition of 25 nM Ag1.5-induced Gli expression incubated for 30 mins prior to Ag1.5-induction measured after 48 hrs by luciferase reporter gene assay
# Format: functional, cell-based
measuredAttribute: pIC50
pIC50 here is simply -log10 of the concentration when that concentration is written in mol/L.

# get_value(readout='pIC50', item= Clc1ccc(Nc2nccc3ccccc23)cc1-c1ncc(-c2ccccc2)[nH]1 )
6.80

Then Clc1ccc(Nc2nccc3cc(N4CCOCC4)ccc23)cc1-c1ncc(-c2ccccc2)[nH]1 ?
8.59

Then C[C@@H]1CN(c2ccc3c(Nc4ccc(Cl)c(-c5nc(-c6ccccc6)c[nH]5)c4)nccc3n2)C[C@H](C)O1 ?
8.22

Then C[C@@H]1CN(c2ccc3c(Nc4ccc(Cl)c(-c5nc(-c6ccccc6)c[nH]5)c4)ccnc3c2)C[C@H](C)O1 ?
8.10

Then C[C@@H]1CN(c2ccc3c(Nc4ccc(Cl)c(-c5ncc(-c6ccccc6)[nH]5)c4)nccc3c2)CCO1 ?
8.80

Then O=S1(=O)CCN(c2ccc3c(Nc4ccc(Cl)c(-c5nc(-c6ccccc6)c[nH]5)c4)nccc3c2)CC1 ?
7.51

Then C[C@@H]1CN(c2cnc3c(Nc4ccc(Cl)c(-c5nc(-c6ccccc6)c[nH]5)c4)cccc3n2)C[C@H](C)O1 ?
7.46

Then C[C@@H]1CN(c2ccc3c(Nc4ccc(Cl)c(-c5ncc(-c6ccccc6)[nH]5)c4)cccc3n2)C[C@H](C)O1 ?
8.30

Then C[C@@H]1CN(c2ccc3c(Nc4ccc(Cl)c(-c5ncc(-c6ccccc6)[nH]5)c4)nccc3n2)CCO1 ?
7.96

----------
# measurementNotes: Volume of distribution at steady state in rat at 3 to 30 mg/kg
# Type: ADME, organism-based
# Parameters: dose 3-30 mg/kg
# protocolConditions: in vivo, read-out: Vdss
measuredAttribute: Vd (L/kg)
Kindly provide the numeric value in L/kg only, without the unit symbol.

# get_value(readout='Vd', item= C[C@@H]1CN(c2ccc3c(Nc4ccc(Cl)c(-c5ncc(-c6ccccc6)[nH]5)c4)nccc3n2)CCO1 )
1

----------
# measurementNotes: Volume of distribution at steady state in mouse
# Format: ADME, organism-based
# protocolConditions: in vivo, read-out: Vdss
measuredAttribute: Vd (L/kg)
Kindly provide the numeric value in L/kg only, without the unit symbol.

# get_value(readout='Vd', item= C[C@@H]1CN(c2ccc3c(Nc4ccc(Cl)c(-c5ncc(-c6ccccc6)[nH]5)c4)nccc3n2)CCO1 )
1.07

----------
# measurementNotes: Oral bioavailability in rat at 3 to 30 mg/kg
# Type: ADME, organism-based
# protocolConditions: in vivo
measuredAttribute: bioavailability
// return the numeric value with its unit appended

# get_value(readout='bioavailability', item= C[C@@H]1CN(c2ccc3c(Nc4ccc(Cl)c(-c5ncc(-c6ccccc6)[nH]5)c4)nccc3n2)CCO1 )
53%

----------
# measurementNotes: Clearance in mouse
# Assay type: ADME, organism-based
# protocolConditions: in vivo
measuredAttribute: clearance (L/h/kg)
Kindly provide the numeric value in L/h/kg only, without the unit symbol.

# get_value(readout='clearance', item= C[C@@H]1CN(c2ccc3c(Nc4ccc(Cl)c(-c5ncc(-c6ccccc6)[nH]5)c4)nccc3n2)CCO1 )
1.92
